Molecular target: Rat brain constitutive nitric oxide synthase (rnNOS) (Rattus norvegicus, UniProt P29476)
Construct: prepared from an extract of rat cerebellum and partially purified by DEAE-Sepharose chromatography; from tissue; host or cells: rat cerebellum
Sequence (P29476 whole entry): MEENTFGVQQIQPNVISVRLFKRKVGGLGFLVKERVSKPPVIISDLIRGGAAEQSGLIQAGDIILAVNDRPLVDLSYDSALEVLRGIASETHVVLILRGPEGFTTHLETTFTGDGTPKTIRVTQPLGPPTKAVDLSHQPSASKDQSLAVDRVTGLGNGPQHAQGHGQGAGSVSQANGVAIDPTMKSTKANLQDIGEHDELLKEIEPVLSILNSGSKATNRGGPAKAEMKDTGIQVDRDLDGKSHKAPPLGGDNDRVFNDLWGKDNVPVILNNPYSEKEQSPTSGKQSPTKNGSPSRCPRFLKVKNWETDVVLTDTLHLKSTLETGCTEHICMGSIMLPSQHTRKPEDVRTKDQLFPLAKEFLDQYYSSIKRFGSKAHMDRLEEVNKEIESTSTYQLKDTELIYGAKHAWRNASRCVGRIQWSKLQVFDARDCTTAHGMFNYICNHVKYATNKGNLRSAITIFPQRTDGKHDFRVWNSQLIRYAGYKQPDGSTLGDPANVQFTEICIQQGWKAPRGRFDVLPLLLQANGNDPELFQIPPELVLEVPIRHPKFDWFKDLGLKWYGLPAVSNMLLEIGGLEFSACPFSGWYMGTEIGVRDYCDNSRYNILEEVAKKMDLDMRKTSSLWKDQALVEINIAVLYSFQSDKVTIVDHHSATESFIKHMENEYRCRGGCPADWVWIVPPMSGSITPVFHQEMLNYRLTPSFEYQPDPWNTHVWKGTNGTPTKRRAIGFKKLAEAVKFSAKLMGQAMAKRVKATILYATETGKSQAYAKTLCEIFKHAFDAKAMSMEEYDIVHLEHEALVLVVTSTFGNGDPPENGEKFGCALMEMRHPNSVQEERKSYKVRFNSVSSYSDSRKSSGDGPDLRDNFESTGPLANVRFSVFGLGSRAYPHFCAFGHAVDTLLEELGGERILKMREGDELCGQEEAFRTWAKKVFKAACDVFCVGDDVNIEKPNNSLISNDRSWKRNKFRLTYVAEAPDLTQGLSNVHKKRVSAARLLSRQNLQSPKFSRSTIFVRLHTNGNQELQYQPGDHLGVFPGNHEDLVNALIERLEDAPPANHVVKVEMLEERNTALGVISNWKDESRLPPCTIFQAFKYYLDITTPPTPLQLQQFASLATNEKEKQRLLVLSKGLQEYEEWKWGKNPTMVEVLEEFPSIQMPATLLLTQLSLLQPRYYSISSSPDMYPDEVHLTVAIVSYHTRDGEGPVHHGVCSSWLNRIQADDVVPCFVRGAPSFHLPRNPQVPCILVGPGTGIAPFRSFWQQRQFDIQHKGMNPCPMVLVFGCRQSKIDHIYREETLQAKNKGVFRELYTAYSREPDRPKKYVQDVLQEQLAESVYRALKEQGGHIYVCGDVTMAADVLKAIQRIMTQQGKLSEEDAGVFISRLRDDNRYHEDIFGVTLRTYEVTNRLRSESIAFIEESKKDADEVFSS
Experiment: Citrulline assay for nitric oxide synthase (cNOS)
Type: biochemical
Structures can show the parent of a compound that is named as a salt.
Mark T for IC50 under 50 µM, F if at or over.

- molecule: "NC1=NCCC1 [Example 12, 2-iminopyrrolidine hydrochloride]"
  group: "T"
- molecule: "Cl.N=C1CCCCC(C2CCCCC2)N1 (stereo not shown) [Example 96, monohydrochloride]"
  group: "F"
- molecule: "N=C1CCCCN1 [Example 13, 2-Iminopiperidine hydrochloride]"
  group: "T"
- molecule: "CC1CCC(N)=NC1 (stereo not shown) [Example 7, 2-Imino-5-methylpiperidine acetate]"
  group: "T"
- molecule: "N=C1NCC(CCl)O1 (stereo not shown)"
  group: "T"
- molecule: "CC1CCNC(=N)CC1 (stereo not shown) [Example 70, monohydrochloride]"
  group: "T"
- molecule: "CC1CCCN=C1N (stereo not shown) [Example 9, 2-imino-3-methylpiperidine acetate]"
  group: "T"
- molecule: "CC1(C)CCN=C(N)C1 [Example 170, monohydrochloride]"
  group: "F"
- molecule: "CC1CCC(N)=N1 (stereo not shown)"
  group: "T"
- molecule: "C[C@@H]1CCCC(N)=NC1 [Example 90, monohydrochloride]"
  group: "T"
- molecule: "N=C1CCCCCCCN1 [Example 2, 2-Imino-octamethyleneimine hydrochloride]"
  group: "T"
- molecule: "NC1=NCCCS1 [Example 17, 2-Imino-3-thiapiperidine hydrochloride]"
  group: "T"
- molecule: "CCC(CC)CC1CCCCC(=N)N1.Cl (stereo not shown) [Example 198, monohydrochloride]"
  group: "F"
- molecule: "CCOC(=O)CCCC[C@@H]1SC[C@@H]2NC(=N)NC21 (stereo partly shown)"
  group: "F"
- molecule: "CCC1CCCCNC1=N (stereo not shown) [Example 60, monohydrochloride]"
  group: "T"
- molecule: "CC1CCCC(=N)N1.Cl (stereo not shown) [Example 8, 2-Imino-6-methylpiperidine hydrochloride]"
  group: "T"
- molecule: "NC1=NC(c2ccccc2)CCCC1 (stereo not shown) [Example 192, monohydrochloride]"
  group: "F"
- molecule: "CCCCC1CCCCC(=N)N1.Cl (stereo not shown) [Example 188, monohydrochloride]"
  group: "F"
- molecule: "CC1CCNC1=N (stereo not shown)"
  group: "T"
